System: OVCAR-3 ovarian
experiment: NCI-60 one-dose screen, 48 h (100 = growth as untreated, 0 = no growth, -100 = all killed)
run_conditions: 10 µM unless noted
The panel holds about 83,000 compounds, 20% with a hit somewhere; the sample as a whole holds those more often.
property: growth (%)
Please reply with the bare figure in % and do not write the unit itself.

Consider the reported growth for these compounds:
# compound, growth, %
rows = [
    ("C/C(=C\\c1cc(C(F)(F)F)nn1CCNC(=O)OC(C)(C)C)[C@@H]1C[C@@H]2O[C@]2(C)CCC[C@H](C)[C@H](O)[C@@H](C)C(=O)C(C)(C)[C@@H](O)CC(=O)O1", 30.8),
    ("C/C(=C\\c1ccn(-c2ccc(N)cc2)n1)[C@@H]1C[C@@H]2O[C@]2(C)CCC[C@H](C)[C@H](O)[C@@H](C)C(=O)C(C)(C)[C@@H](O)CC(=O)O1", 2),
    ("O=C(Nc1ccncc1F)c1cn(CC2CC2)c2ccccc12", 110),
    ("[Au+].[N-]=C=O.c1ccc(CN2[CH-]N(Cc3ccccc3)C(c3ccccc3)=C2c2ccccc2)cc1", 82.6),
    ("COC(=O)[C@H](Cc1ccccc1)NC(=O)c1csc([C@@H](C[C@H](C(C)C)N(C)C(=O)[C@@H](NC(=O)[C@H]2CCCN2C)C2CC2)OC(C)=O)n1", -3.48),
]

Give the measured growth of `CC[C@H](C)[C@@H]([C@@H](CC(=O)N1CCC[C@H]1[C@H](OC)[C@@H](C)C(=O)N[C@H](C)[C@@H](O)c1ccccc1)OC)N(C)C(=O)[C@@H](NC(=O)[C@@H](NC)C(C)C)C(C)C` .
-13.9

Repeat with `Nc1ccc2c(c1)Cc1cc(Br)ccc1-2`
114

Repeat with `COC(=O)[C@H](Cc1ccccc1)NNC(=O)c1csc([C@@H](C[C@H](C(C)C)N(C)C(=O)[C@@H](NC(=O)[C@H]2CCCCN2C)C2CC2)OC(C)=O)n1`
4.06

Repeat with `CCn1c2ccccc2c2cc(C(=O)c3ccc(C)c4ccccc34)ccc21`
7.68

Repeat with `Cc1cc(NC(=O)NCc2ccc(N3C(N)=NC(N)=NC3(C)C)cc2)ccc1S(=O)(=O)F`
67.6
